Cited source: PubChem BioAssay (NCATS)

assay: Quantitative High-Throughput drug screen in 47 multiple myeloma cell lines against the NCATS MIPE library collection: OPM1_PLB cell viability assay (AID 1918989); conditions: CellTiter-Glo, 48 h; series mostly up to 45.8 µM; further: nearly all actives have a fitted effect of over 40% in size
Inconclusive results are not listed. Active and inactive are the calls of the source. The call rests on the fitted dose curve; in most records, active means well fitted cell-killing curve with a large enough effect; inconclusive means small, poorly fitted or top-dose-only effect, or effect the other way; inactive means no such curve, though single readings can be large or run the other way.
Allowed answers: active, inactive

Example entries begin here.
                                   compound  answer_label
0   Cc1coc2c1C(=O)C(=O)c1c-2ccc2c1CCCC2(C)C        active
1  Clc1cccc(-n2nnnc2NCc2ccccc2Oc2ccccn2)c1Cl      inactive
2  CCOC(=O)C1=C(C)NC2=C(C(=O)CC(C)(C)C2)C1c1ccc(-c2ccccc2)cc1 (stereo not given)        active
3  CC(NCc1ccc2c(c1)nc(NC(=O)c1ccc(-c3cn[nH]c3)s1)n2CC(C)(C)O)C(C)(C)C (stereo not given)        active

Now take the following compound into account.
Identify the outcome logged in this assay for the compound shown: O=C(O)c1ccc2c(c1)nc(Nc1cccc(Cl)c1)c1ccncc12
active

====

assay: qHTS drug screen for cell cycle checkpoint inhibitors in PARPi-resistant BRCA-mutant ovarian cancer cell lines. (AID 1963452); details: PEO1/OlaR viability, CellTiter-Glo luminescence, 96 h; measured here: PEO1 parental Z-AUC; stronger effect = lower value
Please map values of Z-AUC to classes as shown: lower level (below -1), middle level (-1 to below 0.8), upper level (0.8 or more)

Example entries begin here.
>>> print(df.to_string())
                                 smiles_str  answer_label
0  CN1CC[C@@H](c2c(O)cc(O)c3c(=O)cc(-c4ccccc4Cl)oc23)[C@@H](O)C1   lower level
1  Cc1nc2ccc(CN(C)c3ccc(C(=O)N[C@@H](CCC(=O)O)C(=O)O)s3)cc2c(=O)[nH]1   lower level
2  COc1cc2c(NC3CCN(C(C)C)CC3)nc(C3CCCCC3)nc2cc1OCCCN1CCCC1  middle level
3  CC(C)(C)c1cnc(CSc2cnc(NC(=O)C3CCNCC3)s2)o1   lower level

For COCCOc1ccc2c(c1)ncn2-c1ccc2cccc(N3CCC(N)CC3)c2n1 , which Z-AUC bin applies?
upper level

Consider next the molecule CCn1cc(-c2ccnc3[nH]c(-c4cccc(CN(C)C)c4)cc23)c(-c2ccc(NC(=O)N(C)C)cc2)n1 in the same way.
lower level

Consider next the molecule COc1cc2nccc(Oc3ccc(NC(=O)C4(C(=O)Nc5ccc(F)cc5)CC4)cc3)c2cc1OC in the same way.
middle level

Consider next the molecule Cc1c(Cn2c(C)nc3c(C(=O)O)cc(N4CCOCC4)cc32)cccc1C(F)(F)F in the same way.
upper level

Consider next the molecule Cc1cc(Nc2cc(CN3CCOCC3)c3nc(C)c(Cc4ccc(Cl)cc4F)n3n2)n[nH]1 in the same way.
middle level

====

experiment: Quantitative High-Throughput drug screen in 47 multiple myeloma cell lines against the NCATS MIPE library collection: OPM1_PLB cell viability assay (AID 1918989); settings: CellTiter-Glo, 48 h; series mostly up to 45.8 µM; further: nearly all actives have a fitted effect of over 40% in size
Records with an inconclusive call do not appear. Activity calls are given as the source filed them. Calls come from the whole dose curve; as a rule, active = well fitted cell-killing curve with a large enough effect; inconclusive = small, poorly fitted or top-dose-only effect, or effect the other way; inactive = no such curve, though single readings can be large or run the other way.
Allowed answers: active, inactive

Example entries begin here.
compound	answer label
O=C(O)Cn1nnc(-c2cc(N3CCC(Oc4cc(F)ccc4Br)CC3)no2)n1	inactive
O=C(O)C1(Cc2cccc(Nc3nccs3)n2)CCC(Oc2cccc(Cl)c2F)CC1 (centres undefined)	active
CCCCN1CCC(CNC(=O)c2c3n(c4ccccc24)CCCO3)CC1	active

Identify the outcome logged in this assay for the compound shown: CCC1=C[C@@H]2CN(C1)Cc1c([nH]c3ccccc13)[C@@](C(=O)OC)(c1cc3c(cc1OC)N(C)[C@@H]1[C@@](O)(C(=O)OC)[C@H](OC(C)=O)[C@]4(CC)C=CCN5CC[C@]31[C@@H]54)C2
active

====

experiment: Quantitative High-Throughput drug screen in 47 multiple myeloma cell lines against the NCATS MIPE library collection: KMS28BM_JCRB cell viability assay (AID 1919874); conditions: CellTiter-Glo ATP, 48 h; series mostly up to 45.8 µM; further: nearly all actives have a fitted effect of over 35% in size
Records with an inconclusive call do not appear. Calls of active or inactive are those of the source. The call rests on the fitted dose curve; in most records, active means well fitted cell-killing curve with a large enough effect; inconclusive means small, poorly fitted or top-dose-only effect, or effect the other way; inactive means no such curve, though single readings can be large or run the other way.
Allowed answers: active, inactive

Example entries begin here.
molecule	answer label
COc1cc2nccc(Oc3ccc(NC(=O)C4(C(=O)Nc5ccc(F)cc5)CC4)cc3)c2cc1OC	active
CC(O)C1C(=O)N2C(C(=O)O)=C(SC3CNC(C(=O)N(C)C)C3)C(C)C12 (centres undefined)	inactive

Identify the outcome logged in this assay for the molecule shown: Fc1cc(-c2cccc3ncc(-c4cnn(C5CCNCC5)c4)nc23)cc(F)c1CN1CCOCC1
active

Consider next the molecule C[C@]12CC[C@H](O)CC1=CCC1C2CC[C@]2(C)C(n3cnc4ccccc43)=CCC12 (some centres undefined) in the same way.
inactive

Consider next the molecule CC1(C)OC2=C(C(=O)c3ccccc3C2=O)[C@H](NCc2ccccc2)[C@H]1O in the same way.
active

====

test: Quantitative High-Throughput drug screen in 47 multiple myeloma cell lines against the NCATS MIPE library collection: H1112_PLB cell viability assay (AID 1918967; further: nearly all actives have a fitted effect of over 30% in size); settings: H1112 myeloma cells viability, ATP luminescence, 48 h; series mostly up to 45.8 µM
Results filed as inconclusive are left out. Activity calls are given as the source filed them. Calls come from the whole dose curve; as a rule, active = well fitted cell-killing curve with a large enough effect; inconclusive = small, poorly fitted or top-dose-only effect, or effect the other way; inactive = no such curve, though single readings can be large or run the other way.
Allowed answers: active, inactive

Example entries begin here.
>>> df
                                   compound  answer_label
0  COc1ccc(CC2SC(=O)NC2=O)cc1C(=O)NCc1ccc(C(F)(F)F)cc1 (centres undefined)      inactive
1  CNc1nccc(-c2cccnc2Oc2cc(C(=O)Nc3cccc(C(F)(F)F)c3)ccc2C)n1        active
2  c1cc(-c2cnn3cc(-c4ccc(OCCN5CCCCC5)cc4)cnc23)ccn1        active

Identify the outcome logged in this assay for the compound shown: COc1c(N2C[C@@H]3CCCN[C@H]3C2)c(F)cc2c(=O)c(C(=O)O)cn(C3CC3)c12
inactive

Consider next the compound C#Cc1cccc(Nc2ncnc3cc(OC)c(OCCCCCCC(=O)NO)cc23)c1 in the same way.
active

Consider next the compound CC1(C)OC2=C(C(=O)c3ccccc3C2=O)[C@H](NCc2ccccc2)[C@H]1O in the same way.
active

Consider next the compound CC(C)c1noc(N2CCC(COc3ccc(-c4ccc(S(C)(=O)=O)cc4)nc3)CC2)n1 in the same way.
inactive

Consider next the compound COc1cccc2nc(-c3cccs3)nc(NN3C(=O)C=C(C)C3=O)c12 in the same way.
active

Consider next the compound COc1ccc(F)c(F)c1C(=O)c1cnc(NC2CCN(S(C)(=O)=O)CC2)nc1N in the same way.
active

====

experiment: qHTS assay for measurement of the activity of small molecule inhibitors on Zika virus induced Caspase-3 activity in human iPSC derived neural progenitor cells (hNPCs) (AID 1224857); details: hNPCs ZIKV-induced caspase-3/7, Caspase-Glo luminescence, 6 h; series mostly up to 45.7 µM; further: nearly all actives have a fitted effect of over 65% in size
Results filed as inconclusive are left out. The source made the active and inactive calls. Calls come from the whole dose curve; as a rule, active = well fitted inhibition curve with a large enough effect; inconclusive = small, poorly fitted or top-dose-only effect; inactive = no such curve, though single readings can be large or run the other way.
Allowed answers: active, inactive

Identify the outcome logged in this assay for the compound shown: COc1cc(C)c(Sc2cnc(NC(=O)c3ccc(CNC(C)C(C)C)cc3)s2)cc1C(=O)N1CCN(C(C)=O)CC1 (configuration not stated)
inactive

Consider next the compound O=C(c1cncc(Br)c1)N1CCC(N2CCCC2)CC1 in the same way.
inactive

====

assay: qHTS Screen of the MIPE 4.0 Collection Against Ewings Sarcoma (RDES) (AID 1259252); details: RD-ES Ewing sarcoma viability, CellTiter-Glo, 48 h; series mostly up to 45.8 µM; further: nearly all actives have a fitted effect of over 35% in size
Results filed as inconclusive are left out. The source made the active and inactive calls. Calls follow the shape of the dose curve; as a rule, active = well fitted inhibition curve with a large enough effect; inconclusive = small, poorly fitted or top-dose-only effect; inactive = no such curve, though single readings can be large or run the other way.
Allowed answers: active, inactive

Example entries begin here.
                                   compound  answer_label
0  CNC(=O)c1cc(Oc2ccc(NC(=O)Nc3cc(C(C)(C)C)nn3-c3ccc4ncccc4c3)c(F)c2)ccn1        active
1  C[C@@H]1COC(Nc2ccc3ncnc(Nc4ccc(OCc5nccs5)c(Cl)c4)c3c2)=N1        active
2  O=C(NC1CCNCC1)c1[nH]ncc1NC(=O)c1c(Cl)cccc1Cl        active
3      COc1ccc(C=Cc2cc(OC)c(OC)c(OC)c2)cc1O      inactive
4  CC(C)c1cc(C(=O)N2Cc3ccc(CN4CCN(C)CC4)cc3C2)c(O)cc1O        active
5  Cc1[nH]c2ccccc2c1CCNCc1ccc(C=CC(=O)NO)cc1        active
6  NCC(=O)Nc1ccc(-n2nc(C(F)(F)F)cc2-c2ccc3c(ccc4ccccc43)c2)cc1        active
7  CC(C)c1noc(N2CCC(COc3ccc(-c4ccc(S(C)(=O)=O)cc4)nc3)CC2)n1      inactive
8  CN(C1CCc2c(c3ccccc3n2CC(=O)O)C1)S(=O)(=O)c1ccc(F)cc1 (stereo not drawn)      inactive
9  CC(C)c1nn(-c2c(Cl)cccc2Cl)c2nc(Cc3ccc(OCCO)cc3)[nH]c(=O)c12        active

Identify the outcome logged in this assay for the compound shown: Nc1ccn([C@@H]2CS[C@H](CO)O2)c(=O)n1
inactive

Consider next the compound COc1ccc(CC2SC(=O)NC2=O)cc1C(=O)NCc1ccc(C(F)(F)F)cc1 (stereo not drawn) in the same way.
inactive
